- Tgt: human CRTH2 (Homo sapiens, UniProt Q9Y5Y4)
- Protocol description: Human CRTH2 Receptor Binding Assay
- Study conditions: whole cell binding, CHO-K1 cells expressing human CRTH2, 20 nM [3H]ramatroban as competing radioligand
Property: pIC50
Answers are plain numbers, as −log10 of the molar value.

Here is how some compounds turned out for pIC50.
- Compound: "O=C(O)COc1cccc2c1CCCC2NS(=O)(=O)c1cnc(Oc2ccc3c(c2)CCC3)c(Br)c1 (stereo not shown) [Example 2-17]"
  Measured value: 6.94
- Compound: "C[S+]([O-])c1cccc(-c2ccc(S(=O)(=O)N[C@@H]3CCCc4c(OCC(=O)O)cccc43)cc2)c1 (stereo partly shown) [Example 4-1]"
  Measured value: 7.87
- Compound: "CN([C@@H]1CCCc2c(OCC(=O)O)cccc21)S(=O)(=O)c1ccc(Oc2ccc(Cl)cc2)c(Cl)c1 [Example 6-1]"
  Measured value: 6.83
- Compound: "CC(=O)c1ccc(-c2ccc(S(=O)(=O)N[C@@H]3CCCc4c(OCC(=O)O)cccc43)cc2)cc1 [Example 1-10]"
  Measured value: 7.17
- Compound: "Cc1cc(C)cc(Oc2ncc(S(=O)(=O)NC3CCCc4c(OCC(=O)O)cccc43)cc2Br)c1 (stereo not shown) [Example 2-15]"
  Measured value: 7.12

Dear colleague, could you please provide pIC50 for the compounds listed below?
1. O=C(O)COc1cccc2c1CCC[C@H]2NS(=O)(=O)c1ccc(Oc2ccc(Cl)cc2)c(Cl)c1 [Example 2-2]
2. O=C(O)COc1cccc2c1CCCC2NS(=O)(=O)c1cccc(Oc2ccccc2)c1 (stereo not shown) [Example 1-3]

**Result**
1. 7.99
2. 6.70

* * *

- Tgt: UniProt:Q9Y5Y4
- Sequence (Q9Y5Y4 1-395): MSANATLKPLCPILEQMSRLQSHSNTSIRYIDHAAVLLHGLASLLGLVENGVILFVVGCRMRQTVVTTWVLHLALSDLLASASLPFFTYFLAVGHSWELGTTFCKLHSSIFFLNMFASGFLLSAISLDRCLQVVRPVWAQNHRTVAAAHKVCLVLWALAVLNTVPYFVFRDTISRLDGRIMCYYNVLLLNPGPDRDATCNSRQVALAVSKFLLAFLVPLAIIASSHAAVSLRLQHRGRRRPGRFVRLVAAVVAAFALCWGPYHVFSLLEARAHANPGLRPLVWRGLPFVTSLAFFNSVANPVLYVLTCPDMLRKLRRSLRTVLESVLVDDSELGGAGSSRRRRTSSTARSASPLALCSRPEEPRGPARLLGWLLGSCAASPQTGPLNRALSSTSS
- Protocol description: Human CRTH2 Receptor Binding Assay
- Study conditions: whole cell binding, CHO-K1 cells expressing human CRTH2, 20 nM [3H]ramatroban as competing radioligand
Property: pIC50
Answers are plain numbers, as −log10 of the molar value.

Each compound below has a recorded value; state its pIC50.
1. O=C(O)COc1cccc2c1CCCC2NS(=O)(=O)c1ccc(-c2cc(F)ccn2)cc1 (stereo not shown)
2. O=C(O)COc1cccc2c1CCCC2NS(=O)(=O)c1ccc(Oc2ccccc2)nc1 (stereo not shown)
3. O=C(O)COc1cccc2c1CCCC2NS(=O)(=O)c1cnc(Oc2ccc(F)cc2Cl)c(Br)c1 (stereo not shown)
4. CN(C)C(=O)c1ccc(-c2ccc(S(=O)(=O)N[C@@H]3CCCc4c(OCC(=O)O)cccc43)cc2)cc1

**Result**
1. 7.26
2. 6.73
3. 7.12
4. 7.17

* * *

- Tgt: human CRTH2 (Homo sapiens)
- Sequence (Q9Y5Y4 1-395): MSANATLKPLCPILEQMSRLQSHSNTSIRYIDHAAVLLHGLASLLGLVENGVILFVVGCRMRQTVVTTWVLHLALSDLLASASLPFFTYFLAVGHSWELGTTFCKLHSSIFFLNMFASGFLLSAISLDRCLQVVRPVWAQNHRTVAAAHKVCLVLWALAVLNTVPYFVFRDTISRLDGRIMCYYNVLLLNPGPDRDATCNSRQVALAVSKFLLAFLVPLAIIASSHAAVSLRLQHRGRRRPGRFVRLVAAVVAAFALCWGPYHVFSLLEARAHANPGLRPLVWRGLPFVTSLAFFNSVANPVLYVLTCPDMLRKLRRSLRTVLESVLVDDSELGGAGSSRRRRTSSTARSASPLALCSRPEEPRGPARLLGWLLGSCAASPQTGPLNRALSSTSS
- Protocol description: Human CRTH2 Receptor Binding Assay
- Study conditions: whole cell binding, CHO-K1 cells expressing human CRTH2, 20 nM [3H]ramatroban as competing radioligand
Please respond with reported pIC50 for every item in the list.
One number for each entry, as −log10 of the molar value.

- Compound: "O=C(O)COc1cccc2c1CCC[C@H]2NS(=O)(=O)c1ccc(-c2ccc(Cl)cc2)cc1"
  pIC50: 7.08
- Compound: "CS(=O)(=O)c1cncc(-c2ccc(S(=O)(=O)NC3CCCc4c(OCC(=O)O)cccc43)cc2)c1 (stereo not shown)"
  pIC50: 7.69

For every item in the list below, what is its measured pIC50?
1. Cc1cc(-c2ccc(S(=O)(=O)N[C@@H]3CCCc4c(OCC(=O)O)cccc43)nc2)cc(C(C)(C)C)c1
2. Cc1ccc(-c2ccc(S(=O)(=O)N[C@@H]3CCCc4c(OCC(=O)O)cccc43)cc2C)cc1

**Result**
1: 8.32; 2: 6.80

Please state, for each entry, its recorded pIC50.
1. CN([C@@H]1CCCc2c(OCC(=O)O)cccc21)S(=O)(=O)c1cc(C(F)(F)F)cc(S(=O)(=O)c2ccc(Cl)cc2)c1
2. O=C(O)COc1cccc2c1CCC[C@H]2NS(=O)(=O)c1ccc(-c2cccc([N+](=O)[O-])c2)cc1
3. Cc1cc(-c2ccc(S(=O)(=O)N[C@@H]3CCCc4c(OCC(=O)O)cccc43)cc2)cc(C(C)(C)C)c1
4. N#Cc1cccc(Oc2ncc(S(=O)(=O)NC3CCCc4c(OCC(=O)O)cccc43)cc2Br)c1 (stereo not shown)
5. O=C(O)COc1cccc2c1CCCC2NS(=O)(=O)c1cnc(Oc2ccc(CCO)cc2)c(Br)c1 (stereo not shown)

**Result**
1: 8.54; 2: 7.62; 3: 8.23; 4: 7.22; 5: 7.50

**Query** Which pIC50 is reported for this compound? "Cc1ccc(-c2ccc(S(=O)(=O)N[C@@H]3CCCc4c(OCC(=O)O)cccc43)cc2)cc1"
**Result** 7.29

* * *

For each record, write down the corresponding pIC50.
- Tgt: human CRTH2 (Homo sapiens, UniProt Q9Y5Y4)
- Construct: expressed in transfected cells
- Protocol description: Human CRTH2 Receptor Binding Assay
- Study conditions: whole cell binding, CHO-K1 cells expressing human CRTH2, 20 nM [3H]ramatroban as competing radioligand
Give bare numbers, as −log10 of the molar value.

Some solved entries appear below for comparison.
- Compound: "CC(C)c1cccc(Oc2ncc(S(=O)(=O)NC3CCCc4c(OCC(=O)O)cccc43)cc2Br)c1 (centres unmarked) [Example 2-9]"
  pIC50: 7.67
- Compound: "O=C(O)COc1cccc2c1CCCC2NS(=O)(=O)c1ccc(-c2ccc(OC(F)(F)F)cc2)cn1 (centres unmarked) [Example 3-62]"
  pIC50: 7.15
- Compound: "COc1ccc(-c2ccc(S(=O)(=O)N[C@@H]3CCCc4c(OCC(=O)O)cccc43)cc2)cc1 [Example 1-8]"
  pIC50: 7.18

Dear colleague, could you send me pIC50 for each of the items below? Thanks.
1. O=C(O)COc1cccc2c1CCC[C@H]2NS(=O)(=O)c1ccc(Oc2ccc(F)cc2)c(C(F)(F)F)c1 [Example 2-42]
2. O=C(O)COc1cccc2c1CCC[C@H]2NS(=O)(=O)c1ccc(-c2ccc(F)cc2)cc1 [Example 1-7]
3. Cc1cccc(-c2ccc(S(=O)(=O)NC3CCCc4c(OCC(=O)O)cccc43)cc2)n1 (centres unmarked) [Example 3-9]

**Result**
[7.95, 7.28, 7.13]

Report pIC50 for each item below.
1. O=C(O)COc1cccc2c1CCC[C@H]2NS(=O)(=O)c1ccc(-c2ccc(O)cc2)cc1 [Example 3-23]
2. O=C(O)COc1cccc2c1CCCC2NS(=O)(=O)c1ccc(-c2cccnc2F)cc1 (centres unmarked) [Example 3-3]

**Result**
1. 6.91
2. 6.69
